- assayedTarget: Cdk4/cyclin D1 (Homo sapiens)
- Construct: made in house; host or cells: Sf9 insect cells
- Sequence (P11802 whole entry, species assumed): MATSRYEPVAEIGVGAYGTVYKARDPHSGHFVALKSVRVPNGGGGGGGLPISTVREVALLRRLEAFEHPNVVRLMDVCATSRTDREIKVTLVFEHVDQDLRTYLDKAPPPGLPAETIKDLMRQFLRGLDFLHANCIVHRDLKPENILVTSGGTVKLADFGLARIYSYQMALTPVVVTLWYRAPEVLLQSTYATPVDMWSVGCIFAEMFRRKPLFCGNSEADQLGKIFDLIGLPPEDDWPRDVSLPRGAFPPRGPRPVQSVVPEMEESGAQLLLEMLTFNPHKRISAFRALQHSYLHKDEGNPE
- Sequence (P24385 whole entry partner, species assumed): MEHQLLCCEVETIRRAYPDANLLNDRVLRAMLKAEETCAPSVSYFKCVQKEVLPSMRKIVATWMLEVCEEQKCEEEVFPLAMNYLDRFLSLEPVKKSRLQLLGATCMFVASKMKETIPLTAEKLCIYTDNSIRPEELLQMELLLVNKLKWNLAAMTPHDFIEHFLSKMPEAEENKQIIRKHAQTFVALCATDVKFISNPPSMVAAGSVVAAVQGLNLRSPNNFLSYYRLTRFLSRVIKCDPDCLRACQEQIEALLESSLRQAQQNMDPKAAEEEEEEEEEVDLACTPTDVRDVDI
- protocolDetails: Cdk4/cyclin D1 inhibition, glutathione-sepharose capture assay
- Format: biochemical
- measurementParameters: read-out: K4/D1
pIC50: −log10 of the molar value.
Let's look at some compounds and their measured pIC50.
observedProperty: pIC50

- smilesCode: "CC(C)c1nn(-c2c(Cl)cc(Cl)cc2Cl)c2nc(Cc3ccc(OCCN4CCOCC4)cc3)[nH]c(=O)c12"
  experimentalValue: "> 6.00"
- smilesCode: "CN1CCN(NC(=O)Nc2cccc3c2C(=O)c2c-3n[nH]c2-c2ccc(OCCN3CCOCC3)cc2)CC1"
  experimentalValue: "> 7.00"
- smilesCode: "CC(C)N1CCN(CCOc2ccc(-c3[nH]nc4c3C(=O)c3c(NC(=O)NN5CCOCC5)cccc3-4)cc2)CC1"
  experimentalValue: "> 8.00"
- smilesCode: "CN1CCN(NC(=O)Nc2cccc3c2C(=O)c2c-3n[nH]c2-c2ccc(OCCN3CCCC3)cc2)CC1"
  experimentalValue: "> 8.00"
